The reported numbers originate from the supplement of paper PMC10567573.

B1: NFE2L1 (parent)
chain: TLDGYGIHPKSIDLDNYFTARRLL

- Variants of: B1
- RUN_DESCRIPTION: protein stability index of a GFP-peptide fusion (GPS, HEK-293T) (PSI 1-6); higher = more stable;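 note: lentivirally expressed fusions sorted by FACS into six bins by GFP to DsRed ratio, PSI derived from sequencing read proportions per bin multiplied by bin number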
- RECORDED_CONDITIONS: c terminus: a fixed tail appended
MEASURED_PROPERTY: protein stability index
Answer as a number with no unit attached.

Solved cases below.
P9T: 1.95
G6H: 1.97
T19P: 2

### Prompt Using the record for I12W , report its protein stability index.
### Response 2.05
